# Test system: KM12 colon
# assay method text: NCI tumour cell line growth inhibition, 48 h
measurement type: TGI

get_value(item= CN(C(=O)C12C3C4C1C1C2C3C41C(O)C(C)(C)C)C(C)(C)C (stereo not given) , readout=TGI) returns > 100 µM

get_value(item= COc1ccc(N=Nc2c(-c3ccccc3)nn(C(=O)CC(=O)Nc3ccccc3Cl)c2-c2ccccc2)cc1 , readout=TGI) returns > 100 µM

get_value(item= CCSc1ccc([C@@H]2[C@@H](N)C(=O)N2c2cc(OC)c(OC)c(OC)c2)cc1 , readout=TGI) returns > 100 µM

get_value(item= O=S1c2ccccc2NC(c2ccc3ccccc3c2)CC1c1ccccc1 (stereo not given) , readout=TGI) returns 41.7 µM

get_value(item= Cc1cc2oc3c(ccc(=O)n3C)c(=O)c2c(C)c1Cl , readout=TGI) returns > 100 µM

get_value(item= CN1CCN(c2ccc3nc(-c4[nH]ncc4Nc4ncnc5c4OCCCN5)[nH]c3c2)CC1 , readout=TGI) returns 0.109 µM

get_value(item= CCOC1NC(/N=C/c2ccc(OC)cc2)=C(C#N)C1C#N (stereo not given) , readout=TGI) returns > 100 µM

get_value(item= COc1cnc2c(c1)C(=O)c1c-2n(CCCNCCN2CCOCC2)c(=O)c2cc([N+](=O)[O-])ccc12 , readout=TGI) returns 3.57 µM

get_value(item= CN1C(=O)CCC1c1ccc2c(c1)oc(=O)n2C (stereo not given) , readout=TGI) returns > 100 µM

get_value(item= O=C1c2cc3c(cc2CC1Cc1ccc2c(c1)CCC2)CCC3 (stereo not given) , readout=TGI) returns > 100 µM
